# MEASURED_TARGET: Estrogen receptor beta (Homo sapiens, UniProt Q92731)
# Sequence (Q92731 whole entry): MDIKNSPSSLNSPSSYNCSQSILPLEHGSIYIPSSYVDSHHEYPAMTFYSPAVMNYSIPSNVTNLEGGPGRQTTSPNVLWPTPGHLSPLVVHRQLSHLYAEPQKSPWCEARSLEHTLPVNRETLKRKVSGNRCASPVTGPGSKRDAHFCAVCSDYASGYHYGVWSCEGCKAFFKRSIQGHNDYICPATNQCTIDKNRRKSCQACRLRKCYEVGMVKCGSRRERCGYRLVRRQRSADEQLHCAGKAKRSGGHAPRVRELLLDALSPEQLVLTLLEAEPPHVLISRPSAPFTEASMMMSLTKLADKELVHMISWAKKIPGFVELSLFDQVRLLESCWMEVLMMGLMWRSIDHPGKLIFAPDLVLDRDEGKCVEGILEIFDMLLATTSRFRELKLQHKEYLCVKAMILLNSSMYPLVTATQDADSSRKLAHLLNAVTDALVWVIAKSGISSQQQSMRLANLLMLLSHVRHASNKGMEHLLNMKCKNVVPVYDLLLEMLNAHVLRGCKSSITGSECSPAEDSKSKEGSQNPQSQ
pIC50: −log10 of the molar value.
READOUT_NAME: pIC50

| MOL | READOUT_NAME | TEST_RESULT |
| --- | --- | --- |
| Cc1c(O)c(C)c2occ(-c3ccc(O)cc3)c(=O)c2c1O | pIC50 | 6.06 |
